Molecular target: Voltage-gated potassium channel subunit beta-2 (Rattus norvegicus)
Test: enhancers of rat Kvbeta2 NADPH turnover – biochemical, NADPH fluorescence, primary screen (AID 623);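 also: fluorescence intensity change per second fitted from 20 to 320 s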
Conditions: Recombinant KvBeta, NADPH fluorescence decrease slope, 10 min; at 10 µM; hits give low values
observed property: NADPH fluorescence slope
No unit in the answer, only the number.

Request: Which NADPH fluorescence slope reading was recorded for the compound CC1=C(C)C(=O)NC(Nc2nc(C)c3cc(C)cc(C)c3n2)N1 (stereo not drawn) ?
Response: -2.3e-05

Request: Which NADPH fluorescence slope reading was recorded for the compound O=C(CCSc1nnc(-c2ccncc2)o1)Nc1ccccc1 ?
Response: -6.6e-05

Request: Which NADPH fluorescence slope reading was recorded for the compound Cc1ccc(C)c2[nH]c(=O)c(CCNC(=O)c3ccc(S(=O)(=O)N(C)C)cc3)cc12 ?
Response: -4e-05

Request: Which NADPH fluorescence slope reading was recorded for the compound Cc1c(NC(=O)C(C)OC(=O)COc2cccc3c2OC(C)(C)C3)c(=O)n(-c2ccccc2)n1C (stereo not drawn) ?
Response: -7.7e-05

Request: Which NADPH fluorescence slope reading was recorded for the compound Nc1nnc(-c2ccccc2)c(-c2ccccc2)n1 ?
Response: -3.6e-05

Request: Which NADPH fluorescence slope reading was recorded for the compound Cc1oc(-c2ccccc2F)nc1CS(=O)(=O)CC(=O)N1CCCCCC1 ?
Response: -9.9e-06

Request: Which NADPH fluorescence slope reading was recorded for the compound CSc1nsc(SCC(=O)N2CCc3ccccc32)n1 ?
Response: 1.5e-05

Request: Which NADPH fluorescence slope reading was recorded for the compound Cc1cc(Nc2ccccc2)n(CCC#N)n1 ?
Response: -8.1e-05

Request: Which NADPH fluorescence slope reading was recorded for the compound O=S1(=O)C=C(Sc2nnc(-c3ccccc3)o2)c2ccccc21 ?
Response: -5.2e-05

Request: Which NADPH fluorescence slope reading was recorded for the compound O=C(Nc1ccc2c(c1)OCO2)N1CCN(c2ncccn2)CC1 ?
Response: -3.9e-06

Request: Which NADPH fluorescence slope reading was recorded for the compound Cc1cc(NC(=O)CCC(=O)N(CCc2ccccc2)C(C(=O)NC2CCCC2)c2ccco2)no1 (stereo not drawn) ?
Response: 0.000137

Request: Which NADPH fluorescence slope reading was recorded for the compound Cc1ccc2c(c1)CCCN2C(=O)C1CCCO1 (stereo not drawn) ?
Response: -4e-05

Request: Which NADPH fluorescence slope reading was recorded for the compound COC(=O)C1=CN(C)C=C(C(=O)OC)C1c1ccc(O)c(OC)c1 ?
Response: -4.6e-05

Request: Which NADPH fluorescence slope reading was recorded for the compound CCCCn1c(CN2CCN(c3ccc(F)cc3)CC2)nc2c1c(=O)n(C)c(=O)n2C ?
Response: -3.3e-05

Request: Which NADPH fluorescence slope reading was recorded for the compound Cc1cccc(C)c1-n1nnnc1SCSc1nnnn1-c1c(C)cccc1C ?
Response: -2.4e-07

Request: Which NADPH fluorescence slope reading was recorded for the compound Cc1cc(C(=O)Nc2ccc(S(=O)(=O)Nc3onc(C)c3C)cc2)cs1 ?
Response: -5e-05

Request: Which NADPH fluorescence slope reading was recorded for the compound CCOC(=O)CSc1nn(C)c(=S)s1 ?
Response: -1.7e-05

Request: Which NADPH fluorescence slope reading was recorded for the compound CCn1ncc(C2=NOC(C(=O)Nc3ccc4c(c3)OCO4)C2)c1C (stereo not drawn) ?
Response: -0.000277

Hello, the source for this data is PubChem BioAssay, in case you need it.
